# reported solubility; entries follow
protocol: solubility in solvents
Type: physicochemical
setup_conditions: absolute ethanol, organic solvent or mixture; read-out: solubility in absolute ethanol

CCOC(=O)[C@@H](C)NC(=O)[C@@H]1C[C@H](C)CC[C@H]1C(C)C : > 500 mg/mL

Query (compound): CCNC(=O)C1CC(C)CCC1C(C)C (centres unmarked) ; field requested: solubility
> 300 mg/mL
